Species on record: Rattus norvegicus
Experiment: DrugMatrix - Regimen: Daily Repeat
Format: toxicity, organism-based, Sprague-Dawley
Design: regimen Daily Repeat, gender Male, age 6-8 weeks
Conditions: in vivo, po, 0 mg/kg, 120 h, tissue Blood, route oral GAVAGE, dose level Control, time 5 day, vehicle .5 % CMC
Measurement Label: ABSOLUTE SEGMENTED NEUTROPHIL
The answer consists of two parts: a number and, after it, its unit.

CCC1=C(C)CN(C(=O)NCCc2ccc(S(=O)(=O)NC(=O)N[C@H]3CC[C@H](C)CC3)cc2)C1=O [GLIMEPIRIDE]; 1308.17 CELLS/uL

Query: Read off the recorded ABSOLUTE SEGMENTED NEUTROPHIL for CCOc1nc2cccc(C(=O)O)c2n1Cc1ccc(-c2ccccc2-c2nnn[nH]2)cc1
Reply: 1327 CELLS/uL

Query: Read off the recorded ABSOLUTE SEGMENTED NEUTROPHIL for CN(C)C(=O)C(CCN1CCC(O)(c2ccc(Cl)cc2)CC1)(c1ccccc1)c1ccccc1 [LOPERAMIDE]
Reply: 1308.17 CELLS/uL

Query: Read off the recorded ABSOLUTE SEGMENTED NEUTROPHIL for C[C@H]1[C@H](NC(=O)/C(=N\OC(C)(C)C(=O)O)c2csc(N)n2)C(=O)N1S(=O)(=O)O
Reply: 1468.33 CELLS/uL

---

Species: Rattus norvegicus
Experiment: DrugMatrix - Regimen: Daily Repeat
Type: toxicity, organism-based, Sprague-Dawley
Design: regimen Daily Repeat, gender Male, age 6-8 weeks
Conditions: in vivo, po, 0 mg/kg, 72 h, tissue Plasma, route oral GAVAGE, dose level Control, time 3 day, vehicle .5 % CMC
Listed next: entries and their corresponding ALBUMIN.
Output spec: scalar in G/DL, unitless text.

CCCCC1=NC2(CCCC2)C(=O)N1Cc1ccc(-c2ccccc2-c2nnn[nH]2)cc1; 4.33
CN(C)C(=O)C(CCN1CCC(O)(c2ccc(Cl)cc2)CC1)(c1ccccc1)c1ccccc1 [LOPERAMIDE]; 4.15

Query: Read off the recorded ALBUMIN for NC(=O)N1c2ccccc2CC(=O)c2ccccc21 [OXCARBAZEPINE]
Reply: 4.33

---

Listed next: entries and their corresponding MEAN CORPUSCULAR HEMOGLOBIN.
Organism: Rattus norvegicus
Assay: DrugMatrix - Regimen: Daily Repeat
Assay type: toxicity, organism-based, Sprague-Dawley
Parameters: regimen Daily Repeat, gender Male, age 6-8 weeks
Details: in vivo, po, 0 mg/kg, 120 h, tissue Blood, route oral GAVAGE, dose level Control, time 5 day, vehicle .5 % CMC
Output spec: scalar in pg, unitless text.

CN(C)C(=O)C(CCN1CCC(O)(c2ccc(Cl)cc2)CC1)(c1ccccc1)c1ccccc1 [LOPERAMIDE]; 25.68
CCCCC1=NC2(CCCC2)C(=O)N1Cc1ccc(-c2ccccc2-c2nnn[nH]2)cc1 [IRBESARTAN]; 20.25

Query: Read off the recorded MEAN CORPUSCULAR HEMOGLOBIN for C#C[C@]1(O)CC[C@H]2[C@@H]3CCC4=CC(=O)CC[C@]4(C)[C@H]3CC[C@@]21C [ETHISTERONE]
Reply: 19.82

Query: Read off the recorded MEAN CORPUSCULAR HEMOGLOBIN for C[C@H]1[C@H](NC(=O)/C(=N\OC(C)(C)C(=O)O)c2csc(N)n2)C(=O)N1S(=O)(=O)O [AZTREONAM]
Reply: 23.22

Query: Read off the recorded MEAN CORPUSCULAR HEMOGLOBIN for CCC1=C(C)CN(C(=O)NCCc2ccc(S(=O)(=O)NC(=O)N[C@H]3CC[C@H](C)CC3)cc2)C1=O [GLIMEPIRIDE]
Reply: 25.68
